Catalogue of z-score values
test details: HepG2 cell viability effects, profiling panel, calcein-AM fluorescence, 48 h, basal (AID 1164); also: test concentration not given here
test conditions: higher = more signal
Respond using a number only.

// below: answered compounds
| compound | z-score |
| --- | --- |
| CC(C)[Si](C#Cc1ccc(Oc2ccccc2)cc1)(O[Si](C#Cc1ccc(Oc2ccccc2)cc1)(C(C)C)C(C)C)C(C)C | -0.377 |
| COc1ccc(CCNC(=O)[C@@H]2c3ccccc3C(=O)N(Cc3ccccc3Cl)[C@H]2c2ccc(CO)cc2)cc1 | 0.332 |
| CCCC[C@@H]1C[C@H]1[C@@H](NC(=O)c1ccco1)c1ccccc1C(F)(F)F | -0.489 |
| O=C1N[C@@H](Cc2ccccc2)C(=O)N2[C@@H]1C[C@@H](C(=O)O)[C@H]2c1cccc(OCCO)c1 | -0.0202 |
| CCOC(=O)C[C@H]1[C@H](OC(=O)c2ccc(C(=O)c3ccccc3)cc2)[C@@H](NC(=O)CC(C)C)c2cc(OCCCO)ccc2N1C(=O)c1ccc2ccccc2n1 | 0.592 |

### Prompt Any idea what its z-score is? The compound is `Cc1ccc(S[C@]2(C(=O)NCCCN(C)C)CC(=O)N(Cc3cc(C(F)(F)F)cc(C(F)(F)F)c3)[C@@H]2c2ccc(CO)cc2)cc1`
### Response -0.767

### Prompt Any idea what its z-score is? The compound is `Cc1ccc(S[C@]2(C(=O)NCCCN(C)C)CC(=O)N(Cc3cc(C(F)(F)F)cc(C(F)(F)F)c3)[C@@H]2c2ccc(CO)cc2I)cc1`
### Response 0.241

### Prompt Any idea what its z-score is? The compound is `CN(C)C(=O)[C@]1(Cc2ccccc2N=[N+]=[N-])N=C(c2ccc(OCCCO)cc2)O[C@@H]1c1ccccc1N=[N+]=[N-]`
### Response -0.468

### Prompt Any idea what its z-score is? The compound is CCCCCN1CC=CC23O[C@@H]4/C=C\CCC(C)OC(=O)C4[C@H]2C(=O)N(C(C)CO)[C@@H]3C1=O (stereo not given in full)
### Response 0.356

### Prompt Any idea what its z-score is? The compound is `COC(=O)[C@@]1(CCS(=O)(=O)c2ccccc2)N=C(c2ccc(OCCCO)cc2)O[C@H]1c1ccccc1CN=[N+]=[N-]`
### Response -1.12
